Recorded pKi values (5-hydroxytryptamine receptor 2B (Homo sapiens, UniProt P41595)) are given below.
Interpret pKi as the negative base-10 log of the concentration measured in mol/L.

Q. Query: pKi; subject: CCc1cc2c(ccc3cnn(CC(C)N)c32)o1 (configuration not stated) [CAS_3045225]
A. 8.60

Q. Can you handle CC(N)Cn1ccc2cc(F)c(Cl)cc21 (configuration not stated) [NSC_3045226] next?
A. 8.62

* * *

- test.target: 5-hydroxytryptamine receptor 3A (Homo sapiens, UniProt P46098)
- Sequence (P46098 whole entry): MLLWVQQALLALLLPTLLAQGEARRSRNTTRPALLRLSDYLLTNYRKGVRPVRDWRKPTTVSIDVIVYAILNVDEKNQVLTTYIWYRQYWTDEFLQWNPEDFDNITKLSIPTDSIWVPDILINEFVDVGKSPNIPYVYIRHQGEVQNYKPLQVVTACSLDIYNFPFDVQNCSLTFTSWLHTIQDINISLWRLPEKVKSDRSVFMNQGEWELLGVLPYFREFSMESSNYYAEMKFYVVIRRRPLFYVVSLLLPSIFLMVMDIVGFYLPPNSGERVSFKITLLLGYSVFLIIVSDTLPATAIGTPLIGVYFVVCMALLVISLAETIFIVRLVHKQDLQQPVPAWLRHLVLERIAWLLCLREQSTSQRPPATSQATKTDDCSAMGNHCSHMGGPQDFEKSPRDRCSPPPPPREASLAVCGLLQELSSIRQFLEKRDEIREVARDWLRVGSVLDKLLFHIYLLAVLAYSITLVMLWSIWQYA
result.type: Ki (nM)
Report the figure in nM without appending any unit label.

Q. Query: Ki; subject: CCc1cc2c(ccc3cnn(CC(C)N)c32)o1 (stereo unspecified) [CAS_3045225]
A. 1000

* * *

- test.target: UniProtKB P47898
- Sequence (P47898 whole entry): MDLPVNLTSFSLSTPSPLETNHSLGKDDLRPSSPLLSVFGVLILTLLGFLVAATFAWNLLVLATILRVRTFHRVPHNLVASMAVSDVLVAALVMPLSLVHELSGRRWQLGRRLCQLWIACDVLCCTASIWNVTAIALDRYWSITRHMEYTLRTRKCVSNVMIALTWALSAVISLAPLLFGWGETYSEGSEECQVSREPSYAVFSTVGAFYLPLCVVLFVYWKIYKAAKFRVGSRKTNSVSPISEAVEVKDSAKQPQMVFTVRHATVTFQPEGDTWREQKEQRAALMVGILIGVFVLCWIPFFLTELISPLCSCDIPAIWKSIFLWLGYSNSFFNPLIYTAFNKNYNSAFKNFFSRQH
result.type: Ki (nM)
Report the figure in nM without appending any unit label.

Q. Query: Ki; subject: CCc1cc2c(ccc3cnn(CC(C)N)c32)o1 (stereo unspecified) [CAS_3045225]
A. 1000

* * *

- test.target: Alpha-2A adrenergic receptor (Homo sapiens, UniProt P08913)
- Sequence (P08913 whole entry): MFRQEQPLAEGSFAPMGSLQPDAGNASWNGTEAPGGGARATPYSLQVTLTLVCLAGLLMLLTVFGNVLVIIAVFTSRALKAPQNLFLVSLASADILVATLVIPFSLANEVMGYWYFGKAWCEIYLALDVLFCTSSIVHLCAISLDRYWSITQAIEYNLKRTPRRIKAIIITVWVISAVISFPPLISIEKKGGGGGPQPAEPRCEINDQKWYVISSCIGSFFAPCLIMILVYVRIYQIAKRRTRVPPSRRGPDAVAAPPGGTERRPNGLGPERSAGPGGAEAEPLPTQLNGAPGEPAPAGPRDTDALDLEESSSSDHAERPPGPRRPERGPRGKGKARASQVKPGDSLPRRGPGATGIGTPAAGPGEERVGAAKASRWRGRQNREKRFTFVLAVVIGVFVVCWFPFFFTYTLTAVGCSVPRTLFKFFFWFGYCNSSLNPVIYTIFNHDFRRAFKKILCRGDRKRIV
result.type: Ki

Q. Query: Ki; subject: CCc1cc2c(ccc3cnn(CC(C)N)c32)o1 (stereo unspecified)
A. 126 nM

* * *

- test.target: 5-hydroxytryptamine receptor 2C (Homo sapiens, UniProt P28335)
- Sequence (P28335 whole entry): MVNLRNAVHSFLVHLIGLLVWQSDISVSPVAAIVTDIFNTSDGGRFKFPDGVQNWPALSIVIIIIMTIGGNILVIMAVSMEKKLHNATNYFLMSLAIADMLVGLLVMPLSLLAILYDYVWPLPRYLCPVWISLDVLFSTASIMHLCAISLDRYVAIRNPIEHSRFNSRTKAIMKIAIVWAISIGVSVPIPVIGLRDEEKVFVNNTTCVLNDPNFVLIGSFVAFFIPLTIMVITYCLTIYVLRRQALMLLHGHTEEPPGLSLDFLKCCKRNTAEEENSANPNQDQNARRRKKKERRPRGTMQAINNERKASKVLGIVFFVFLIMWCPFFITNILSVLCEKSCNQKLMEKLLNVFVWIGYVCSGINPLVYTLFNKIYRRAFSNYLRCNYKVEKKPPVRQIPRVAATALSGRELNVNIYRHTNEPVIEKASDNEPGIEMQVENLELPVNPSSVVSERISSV
Give measured Ki for each item. Keep answers brief.
Report the figure in nM without appending any unit label.

Q. Query: Ki; subject: CCc1cc2c(ccc3cnn(CC(C)N)c32)o1 (configuration not stated) [CAS_3045225]
A. 0.89

Q. Can you handle CC(N)Cn1ccc2cc(F)c(Cl)cc21 (configuration not stated) [NSC_3045226] next?
A. 19
